Biological target: recombinant soluble tissue factor and recombinant human factor VIIa (TF-VIIa) (Homo sapiens, UniProt P08709)
Construct: soluble TF made in house in E. coli
Sequence (P08709 213-466 limits assumed): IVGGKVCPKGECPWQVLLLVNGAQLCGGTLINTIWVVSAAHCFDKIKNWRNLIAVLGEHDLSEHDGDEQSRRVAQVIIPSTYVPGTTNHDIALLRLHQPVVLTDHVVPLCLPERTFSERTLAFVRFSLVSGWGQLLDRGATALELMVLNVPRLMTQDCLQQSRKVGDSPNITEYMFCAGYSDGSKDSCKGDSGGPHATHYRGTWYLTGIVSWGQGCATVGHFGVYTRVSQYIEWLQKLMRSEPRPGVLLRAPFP
Sequence (P08709 61-212 limits assumed): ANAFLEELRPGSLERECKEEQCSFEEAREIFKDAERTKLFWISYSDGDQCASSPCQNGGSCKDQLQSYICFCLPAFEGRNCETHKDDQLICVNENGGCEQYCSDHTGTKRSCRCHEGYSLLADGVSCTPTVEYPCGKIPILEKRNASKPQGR
Sequence (P13726 33-251 partner limits assumed): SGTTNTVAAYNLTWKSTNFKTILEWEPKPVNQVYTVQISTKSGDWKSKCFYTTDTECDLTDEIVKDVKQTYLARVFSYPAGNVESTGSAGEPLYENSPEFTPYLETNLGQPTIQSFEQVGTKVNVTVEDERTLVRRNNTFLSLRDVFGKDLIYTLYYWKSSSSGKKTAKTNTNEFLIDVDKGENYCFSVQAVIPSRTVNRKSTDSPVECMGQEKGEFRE
Assay: TF-VIIa Assay (chromogenic substrate hydrolysis, 405 nm)
Conditions: read-out: IF-VIIA IC50
pIC50: −log10 of the molar value.

| compound | pIC50 |
| --- | --- |
| N=C(N)NCCCCNC(=O)c1cc(NS(=O)(=O)Cc2ccccc2)ccc1Sc1ccccc1 [Example 7] | < 4.00 |
| N=C(N)c1cccc(CNC(=O)c2cc(NS(=O)(=O)Cc3ccccc3)ccc2Sc2ccccc2)c1 [Example 5] | < 4.52 |
| N=C(N)NCCCCCNC(=O)c1cc(NS(=O)(=O)Cc2ccccc2)ccc1Sc1ccccc1 [Example 8] | < 4.00 |

====

Target: trypsin, type IX from porcine pancreas (Sus scrofa, UniProt P00761)
Construct: purchased Sigma, St. Louis Mo; host or cells: porcine pancreas
Sequence (P00761 9-231): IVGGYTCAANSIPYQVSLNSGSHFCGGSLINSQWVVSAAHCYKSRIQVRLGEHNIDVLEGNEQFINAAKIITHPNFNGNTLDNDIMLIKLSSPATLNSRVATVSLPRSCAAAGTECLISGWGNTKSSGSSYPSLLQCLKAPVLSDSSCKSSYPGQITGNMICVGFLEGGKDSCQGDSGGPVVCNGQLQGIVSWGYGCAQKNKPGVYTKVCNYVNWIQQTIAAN
Test: Trypsin Assay (L-BAPNA, 405 nm)
Assay type: biochemical
Details: read-out: Trpysin II IC50
IC50: recorded values
metric: IC50

| molecule | result |
| --- | --- |
| N=C(N)c1cccc(CNC(=O)Cc2c(F)ccc(NS(=O)(=O)Cc3ccccc3)c2F)c1 [Example 13] | > 30 µM |
| N=C(N)NCCCCCNC(=O)Cc1c(F)ccc(NS(=O)(=O)Cc2ccccc2)c1F [Example 15] | > 30 µM |
| N=C(N)NCCCNC(=O)c1cc(NS(=O)(=O)Cc2ccccc2)ccc1Sc1ccccc1 [Example 6] | > 100 µM |
| CN(C)c1ccc(CNC(=O)Cc2c(F)ccc(NS(=O)(=O)Cc3ccccc3)c2F)cc1 [Example 10] | > 30 µM |
| N=C(N)NCCCCNC(=O)c1cc(NS(=O)(=O)Cc2ccccc2)ccc1Sc1ccccc1 [Example 7] | > 100 µM |
| CC(C)Nc1ccc(-c2cccc(N)c2)c(CC(=O)NCc2ccc(C(=N)N)cc2)c1F [Example 21] | < 0.04 µM |
